# system name: Lon protease (Escherichia coli (strain K12)) (UniProt P0A9M0)
# Sequence (P0A9M0 whole entry, looked up): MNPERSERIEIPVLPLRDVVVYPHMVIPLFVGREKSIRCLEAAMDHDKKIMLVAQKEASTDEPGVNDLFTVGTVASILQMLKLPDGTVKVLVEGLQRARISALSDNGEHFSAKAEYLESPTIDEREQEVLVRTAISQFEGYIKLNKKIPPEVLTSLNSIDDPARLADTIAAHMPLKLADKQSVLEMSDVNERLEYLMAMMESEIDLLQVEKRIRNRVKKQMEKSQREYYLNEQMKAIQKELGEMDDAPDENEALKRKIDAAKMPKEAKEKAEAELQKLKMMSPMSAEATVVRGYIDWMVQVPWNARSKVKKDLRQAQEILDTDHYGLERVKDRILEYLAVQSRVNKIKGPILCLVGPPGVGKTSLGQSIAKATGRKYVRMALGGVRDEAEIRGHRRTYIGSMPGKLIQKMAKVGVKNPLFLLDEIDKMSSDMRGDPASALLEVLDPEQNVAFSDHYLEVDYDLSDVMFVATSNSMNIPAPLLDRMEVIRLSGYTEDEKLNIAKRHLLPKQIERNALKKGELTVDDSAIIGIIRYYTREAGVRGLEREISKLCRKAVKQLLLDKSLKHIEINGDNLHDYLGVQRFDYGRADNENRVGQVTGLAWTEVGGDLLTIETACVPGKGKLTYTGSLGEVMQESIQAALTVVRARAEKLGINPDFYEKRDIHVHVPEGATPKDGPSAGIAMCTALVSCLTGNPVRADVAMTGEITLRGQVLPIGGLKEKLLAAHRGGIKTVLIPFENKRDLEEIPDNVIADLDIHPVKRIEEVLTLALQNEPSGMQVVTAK
# assay name: inhibition of eLon from E. coli – biochemical, fluorescence polarization, confirmation (AID 602230);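 note: 0% = enzyme with probe and DMSO and 100% = no enzyme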
# condition details: purified E. coli Lon, at 7.94 µM, hits give high values
Hit rate of the full screen: of about 1,400 compounds, about 450 (32%) were called active. These entries were drawn from the full list.
value kind: inhibition (%)
Hi! Could you send only the number? It should be in %, unit omitted.

compound=Cc1ccc(NC(=O)Cc2nnc(SCC(=O)Nc3nncs3)n2C)cc1 value_kind=inhibition readout_units=% observed_measurement=-64.9
compound=Cc1ccn2cc(-c3nonc3C)cc2c1 value_kind=inhibition readout_units=% observed_measurement=5.46
compound="Cc1cccn2c(=O)c3cc(C#N)c(=NC(=O)c4cccnc4)n(CC4CCCO4)c3nc12 (stereo unspecified)" value_kind=inhibition readout_units=% observed_measurement=-2.72
compound=COc1ccccc1-c1cc2nc(NCc3cccc(Cl)c3)ccn2n1 value_kind=inhibition readout_units=% observed_measurement=2.95
compound=Cc1cccc(C)c1N1CCN(S(=O)(=O)N2CCOCC2)CC1 value_kind=inhibition readout_units=% observed_measurement=-4.84

In: Write down the reported inhibition of O=C1C2C3C=CC(C4CC34)C2C(=O)N1/N=C/c1ccc(-c2ccccc2[N+](=O)[O-])o1 (stereo unspecified) , test system: Lon protease (Escherichia coli (strain K12)) (UniProt P0A9M0).
Out: 1.11

In: Write down the reported inhibition of `COc1cc(C(=O)NCc2ccc3c(c2)cc(C)n3C)cc(OC)c1OC` , test system: Lon protease (Escherichia coli (strain K12)) (UniProt P0A9M0).
Out: -12.4

In: Write down the reported inhibition of `Cc1ccccc1Nc1nc(N)nc(CN2CCN(c3ccccn3)CC2)n1` , test system: Lon protease (Escherichia coli (strain K12)) (UniProt P0A9M0).
Out: 3.69

In: Write down the reported inhibition of `O=C(COC(=O)c1ccccc1C(=O)N1CCN(c2ccccc2)CC1)NCc1ccccc1` , test system: Lon protease (Escherichia coli (strain K12)) (UniProt P0A9M0).
Out: 5.02

In: Write down the reported inhibition of `COCCOC(=O)c1sc(=S)n(CCOC)c1N` , test system: Lon protease (Escherichia coli (strain K12)) (UniProt P0A9M0).
Out: 27.9

In: Write down the reported inhibition of `CCCC(O)(CCC)C(=O)NN(C(=O)CCl)c1cccc(C)c1` , test system: Lon protease (Escherichia coli (strain K12)) (UniProt P0A9M0).
Out: -3.35
